A collection of molecules and their measured 2:1, Tm average (CatL)
target: CatL (Homo sapiens, UniProt P07711, T223A); construct: made in house; host or cells: Komagataella pastoris strain GS115; test: NanoDSF, thermal stability of CatL; format: binding
Sequence (P07711 114-333 T223A): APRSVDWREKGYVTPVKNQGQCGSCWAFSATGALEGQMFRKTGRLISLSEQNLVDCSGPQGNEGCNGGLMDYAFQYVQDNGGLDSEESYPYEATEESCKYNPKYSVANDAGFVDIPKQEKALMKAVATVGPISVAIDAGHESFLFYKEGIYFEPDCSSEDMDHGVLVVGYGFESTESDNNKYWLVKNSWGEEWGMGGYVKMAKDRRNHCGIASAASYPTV
Peptide text beside a SMILES is read from it. * marks the point of attachment. Cbz = O=C(OCc1ccccc1)*
result_type: 2:1, Tm average (CatL) (°C)

CCCC(NC(=O)C(CC(C)C)NC(=O)OCc1ccccc1)C(=O)C(=O)NCc1ccccn1 (stereo not shown) [CI-XII]: 81.6
CC(C)(C)OC(=O)Nc1cccn([C@@H](CC2CC2)C(=O)N[C@@H](C[C@@H]2CCNC2=O)C(=O)C(=O)NCc2ccccc2)c1=O [13b]: 68.7
CC(C)C[C@@H](C=O)NC(=O)[C@H](CC(C)C)NC(=O)[C@H](CC(C)C)NC(=O)OCc1ccccc1 [MG-132, Z-Leu-Leu-Leu-aldehyde] (Cbz-Leu-Leu-Leu-aldehyde): 79.7
Cc1ccc(S(=O)(=O)N[C@@H](Cc2ccccc2)C(=O)CCl)cc1 [TPCK]: 67.8

----------
assay: in vitro; details: African green monkey
Square brackets hold non-standard residues; d marks the D form. Peptide text beside a SMILES is read from it. Nle = CCCC[C@H](N)C(=O)O
result_type: viability at 48 h, 0.0001 µM (%)

CCCC[C@@H](C=O)NC(=O)[C@H](CC(C)C)NC(=O)[C@H](CC(C)C)NC(C)=O [MG101] (Ac-Leu-Leu-[Nle]-aldehyde): 102
CCCC[C@@H](C=O)NC(=O)[C@H](CC(C)C)NC(=O)OCc1ccccc1 [Calpeptin]: 98.4

----------
target: CatL (Homo sapiens, UniProt P07711, T223A); construct: made in house; host or cells: Komagataella pastoris strain GS115; experiment: NanoDSF, thermal stability of CatL; type: binding; details: 20:1 compound to protein
Peptide text beside a SMILES is read from it. * marks the point of attachment. Cbz = O=C(OCc1ccccc1)*
result_type: 20:1, Tm average (CatL) (°C)

CC(C)(C)OC(=O)NCC=O [BOCA, tert-Butyl N-2-oxoethylcarbamate]: 67.5
CCOC(=O)[C@H]1O[C@@H]1C(=O)N[C@@H](CC(C)C)C(=O)NCCC(C)C [E-64d]: 74.8
CCc1ccccc1NC(=O)CSC(=O)NNC(=O)[C@H](Cc1c[nH]c2ccccc12)NC(=O)OC(C)(C)C [TC-I]: 81.9
CCCC[C@@H](C=O)NC(=O)[C@H](CC(C)C)NC(=O)OCc1ccccc1 [Calpeptin]: 82
CC(C)C[C@@H](C=O)NC(=O)[C@@H](NS(=O)(=O)c1ccc(F)cc1)C(C)C [CI-VI]: 81.4
CN(C)C(=O)C(Cc1ccccc1)NC(=O)[C@H]1O[C@@H]1C(=O)NCCc1ccccn1 (stereo partly shown) [CLIK148]: 77
O=C(NCc1ccccc1)[C@H](Cc1ccccc1)NC(=O)[C@H]1O[C@@H]1C(=O)NCCc1ccc(O)cc1 [CAA0225]: 78.5
CC(C)[C@H](NC(=O)OCc1ccccc1)C(=O)N[C@H](C=O)Cc1ccccc1 [CI-III, N-Cbz-Val-Phe-aldehyde] (Cbz-Val-Phe-aldehyde): 81.2
CN(C)C(=O)COC(=O)Cc1ccc(OC(=O)c2ccc(NC(=N)N)cc2)cc1 [Camostat]: 62.9
CC(C)C[C@H](NC(=O)[C@H]1O[C@@H]1C(=O)O)C(=O)NCCCCN=C(N)N [E-64]: 76.9

----------
assay: Cell viability assay (CellTiter-Blue); conditions: African green monkey
Peptide text beside a SMILES is read from it. * marks the point of attachment. Cbz = O=C(OCc1ccccc1)*
A collection of compounds and their measured viability at 48 h, 1 µM
result_type: viability at 48 h, 1 µM (%)

CCCC(NC(=O)C(CC(C)C)NC(=O)OCc1ccccc1)C(=O)C(=O)NCc1ccccn1 (stereo not drawn) [CIXII]: 103
CC[C@@H](C)[C@H](NS(=O)(=O)c1cccc2ccccc12)C(=O)N[C@H](C=O)Cc1c[nH]c2ccccc12 [CLIIV]: 102
O=C(NCc1ccccc1)[C@H](Cc1ccccc1)NC(=O)[C@H]1O[C@@H]1C(=O)NCCc1ccc(O)cc1 [CAA0225]: 105
CC(C)C[C@@H](C=O)NC(=O)[C@@H](NS(=O)(=O)c1ccc(F)cc1)C(C)C [CIVI]: 98.8
CC(C)[C@H](NC(=O)OCc1ccccc1)C(=O)N[C@H](C=O)Cc1ccccc1 [CIII] (Cbz-Val-Phe-aldehyde): 98.9
CN(C)C(=O)C(Cc1ccccc1)NC(=O)[C@H]1O[C@@H]1C(=O)NCCc1ccccn1 (stereo partly drawn) [CLIK148]: 104

----------
A collection of compounds and their measured viability at 48 h, 10 µM
assay: in vitro; details: African green monkey
Square brackets hold non-standard residues; d marks the D form. Peptide text beside a SMILES is read from it. Nle = CCCC[C@H](N)C(=O)O
result_type: viability at 48 h, 10 µM (%)

CCCC[C@@H](C=O)NC(=O)[C@H](CC(C)C)NC(=O)[C@H](CC(C)C)NC(C)=O [MG101] (Ac-Leu-Leu-[Nle]-aldehyde): 63
CCCC[C@@H](C=O)NC(=O)[C@H](CC(C)C)NC(=O)OCc1ccccc1: 105

----------
A collection of molecules and their measured Ki
biological target: CatL (Homo sapiens, UniProt P07711, T223A); construct: made in house; host or cells: Komagataella pastoris strain GS115; assay: CatL inhibition assay (Ki), substrate Z-RR-AMC; assay type: biochemical; conditions: CatL, Z-RR-AMC, pH 4.0, 37 °C; read-out: Ki
result_type: Ki (nM)

CC(C)(C)OC(=O)Nc1cccn([C@@H](CC2CC2)C(=O)N[C@@H](C[C@@H]2CCNC2=O)C(=O)C(=O)NCc2ccccc2)c1=O [13b]: 293
CCc1ccccc1NC(=O)CSC(=O)NNC(=O)[C@H](Cc1c[nH]c2ccccc12)NC(=O)OC(C)(C)C: 71.4
